Tested on: 323965-272-R-J2-PDC complex spheroid growth, % test/control
Test Protocol: Anticancer human tumor 323965-272-R-J2-PDC patient-derived pancreatic carcinoma cell line growth inhibition [Asc]
Condition Info: second compound 0.0949 µM; first compound 3.16 µM; hits give low values
Each entry below lists one item and its recorded viability, T/C value.

- Compound: "O=C(c1cc(Cc2n[nH]c(=O)c3ccccc23)ccc1F)N1CCN(C(=O)C2CC2)CC1 + CCN1C(C(=O)NC23CCC(C(=O)O)(CC2)CC3)C(c2cccc(Cl)c2F)C2(C(=O)Nc3cc(Cl)ccc32)C12CCCCC2"
  viability, T/C: "116%"
- Compound: "C=C(F)C(=O)N1CCN(c2nc(OCC3CCCN3C)nc3c2CCN(c2cccc4cccc(Cl)c24)C3)CC1CC#N (centres undefined) + CCN1C(C(=O)NC23CCC(C(=O)O)(CC2)CC3)C(c2cccc(Cl)c2F)C2(C(=O)Nc3cc(Cl)ccc32)C12CCCCC2"
  viability, T/C: "74.3%"
- Compound: "C=CC(=O)N1CCN(c2nc(=O)n(-c3c(C)ccnc3C(C)C)c3nc(-c4c(O)cccc4F)c(F)cc23)C(C)C1 (centres undefined) + CCN1C(C(=O)NC23CCC(C(=O)O)(CC2)CC3)C(c2cccc(Cl)c2F)C2(C(=O)Nc3cc(Cl)ccc32)C12CCCCC2"
  viability, T/C: "66.2%"
- Compound: "C#Cc1c(F)ccc2cc(O)cc(-c3ncc4c(N5CC6CCC(C5)N6)nc(OCC56CCCN5CC(F)C6)nc4c3F)c12 (centres undefined) + CCN1C(C(=O)NC23CCC(C(=O)O)(CC2)CC3)C(c2cccc(Cl)c2F)C2(C(=O)Nc3cc(Cl)ccc32)C12CCCCC2"
  viability, T/C: "70.8%"

----------
System: 323965-272-R-J2-PDC complex spheroid growth, % test/control
Test Protocol: Anticancer human tumor 323965-272-R-J2-PDC cell line growth inhibition [Asc];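 further: compound exposure lasted 7 days starting three days after spheroid seeding; 100% = DMSO vehicle control wells with viability set relative to vehicle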
Condition Info: second compound 0.0316 µM; first compound 0.00316 µM; hits give low values
Source text: Multicellular complex tumor spheroid response to apoptosis pathway targeting inhibitors Alrizomadlin, Pelcitoclax, and Dasminapant in combination with a variety of drugs and investigational agents in selected tumor cell lines […] Compounds. […] If the clinical Cmax for an agent had not been determined, the highest concentration tested was 10 microM. […]
Readout Label: viability, T/C (%)

- Molecule: "NC1CCC(NC2CC2c2ccccc2)CC1 (stereo not drawn) + Cc1c(S(C)(=O)=O)c(-c2cc(F)cc(N3CCN(c4ccc(NS(=O)(=O)c5ccc(NC(CCN6CCC(C(=O)OCCCP(=O)(O)O)CC6)CSc6ccccc6)c(S(=O)(=O)C(F)(F)F)c5)cc4)CC3)c2)c(-c2ccc(Cl)cc2)n1C(C)C"
  Number: 107
- Molecule: "CNC(C)C(=O)NC1CN(S(=O)(=O)c2cccc(S(=O)(=O)N3CCC4CCC(C(=O)NC(c5ccccc5)c5ccccc5)N4C(=O)C(NC(=O)C(C)NC)C3)c2)CCC2CCC(C(=O)NC(c3ccccc3)c3ccccc3)N2C1=O (stereo not drawn) + Cc1c(S(C)(=O)=O)c(-c2cc(F)cc(N3CCN(c4ccc(NS(=O)(=O)c5ccc(NC(CCN6CCC(C(=O)OCCCP(=O)(O)O)CC6)CSc6ccccc6)c(S(=O)(=O)C(F)(F)F)c5)cc4)CC3)c2)c(-c2ccc(Cl)cc2)n1C(C)C"
  Number: 106
- Molecule: "COc1c(OCCCN2CCOCC2)ccc2c3n(c(=NC(=O)c4cnc(N)nc4)nc12)CCN3 + CNC(C)C(=O)NC1CN(S(=O)(=O)c2cccc(S(=O)(=O)N3CCC4CCC(C(=O)NC(c5ccccc5)c5ccccc5)N4C(=O)C(NC(=O)C(C)NC)C3)c2)CCC2CCC(C(=O)NC(c3ccccc3)c3ccccc3)N2C1=O"
  Number: 94.7
